As shown below, each of these compounds has a reported pIC50 value.
- test.system: interaction between VCAM-1 and VLA-4 (Homo sapiens, UniProt P05556+P13612)
- Construct: supplied in their natural form as surface molecules on human U937 cells; The partner hVCAM-1(1-3)-IgG was made in house in transfected COS cells (ATCC CRL1651) and used as culture supernatant
- Sequence (P13612 34-1032): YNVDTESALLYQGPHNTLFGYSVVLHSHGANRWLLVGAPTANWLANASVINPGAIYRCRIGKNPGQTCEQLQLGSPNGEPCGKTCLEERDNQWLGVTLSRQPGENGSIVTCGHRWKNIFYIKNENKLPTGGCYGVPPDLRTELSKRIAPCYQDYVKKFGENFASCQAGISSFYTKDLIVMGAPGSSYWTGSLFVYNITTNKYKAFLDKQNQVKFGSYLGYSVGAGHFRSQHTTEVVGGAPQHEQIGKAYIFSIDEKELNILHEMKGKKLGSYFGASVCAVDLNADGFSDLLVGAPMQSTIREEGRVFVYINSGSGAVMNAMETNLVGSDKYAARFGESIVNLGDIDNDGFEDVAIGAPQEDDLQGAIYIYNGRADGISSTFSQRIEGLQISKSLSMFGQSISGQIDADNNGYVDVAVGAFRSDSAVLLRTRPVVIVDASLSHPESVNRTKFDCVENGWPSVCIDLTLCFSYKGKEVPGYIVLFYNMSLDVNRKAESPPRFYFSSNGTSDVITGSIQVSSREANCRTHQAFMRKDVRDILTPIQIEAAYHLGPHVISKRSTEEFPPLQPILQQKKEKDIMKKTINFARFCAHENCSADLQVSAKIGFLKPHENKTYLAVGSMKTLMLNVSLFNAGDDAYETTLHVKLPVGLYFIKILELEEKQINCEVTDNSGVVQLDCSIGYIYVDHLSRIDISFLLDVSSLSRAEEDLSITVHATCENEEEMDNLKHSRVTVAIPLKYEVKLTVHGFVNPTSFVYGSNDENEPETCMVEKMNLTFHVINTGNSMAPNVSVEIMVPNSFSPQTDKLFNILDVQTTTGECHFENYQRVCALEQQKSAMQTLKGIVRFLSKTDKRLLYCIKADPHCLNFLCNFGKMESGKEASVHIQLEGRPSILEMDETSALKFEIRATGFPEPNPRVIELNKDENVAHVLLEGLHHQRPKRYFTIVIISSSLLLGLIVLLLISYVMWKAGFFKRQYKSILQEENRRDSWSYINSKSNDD
- Sequence (P05556 21-798): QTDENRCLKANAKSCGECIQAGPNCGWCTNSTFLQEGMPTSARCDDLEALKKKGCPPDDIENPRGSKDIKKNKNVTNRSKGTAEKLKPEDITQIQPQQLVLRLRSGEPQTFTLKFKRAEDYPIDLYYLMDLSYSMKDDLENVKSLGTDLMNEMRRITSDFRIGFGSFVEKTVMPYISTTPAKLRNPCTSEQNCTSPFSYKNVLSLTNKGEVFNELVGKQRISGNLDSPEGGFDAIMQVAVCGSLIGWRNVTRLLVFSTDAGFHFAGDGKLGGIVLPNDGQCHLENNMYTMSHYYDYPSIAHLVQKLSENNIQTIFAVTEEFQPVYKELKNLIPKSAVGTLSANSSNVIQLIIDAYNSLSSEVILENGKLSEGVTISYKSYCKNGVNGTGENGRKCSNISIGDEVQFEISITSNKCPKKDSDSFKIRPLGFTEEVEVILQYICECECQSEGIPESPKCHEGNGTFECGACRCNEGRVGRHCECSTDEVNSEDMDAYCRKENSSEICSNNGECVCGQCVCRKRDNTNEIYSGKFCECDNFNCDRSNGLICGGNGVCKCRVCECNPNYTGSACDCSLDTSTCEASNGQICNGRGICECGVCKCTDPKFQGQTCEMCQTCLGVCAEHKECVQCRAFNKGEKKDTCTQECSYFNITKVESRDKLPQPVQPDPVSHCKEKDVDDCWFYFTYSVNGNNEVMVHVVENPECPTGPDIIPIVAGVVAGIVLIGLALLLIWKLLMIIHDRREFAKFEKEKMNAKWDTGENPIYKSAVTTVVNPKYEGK
- protocol.details: U937/VCAM-1 cell adhesion test (adhesion of U937 cells to hVCAM-1(1-3)-IgG)
- reported.conditions: concentration leading to 50% inhibition of adhesion of human U937 cells (ATCC CRL 1593) to hVCAM-1(1-3)-IgG
pIC50: −log10 of the molar value.
attribute.measured: pIC50

compound: Cc1ccccc1NC(=O)Nc1ccc(CN2C(=O)N(CC(=O)N[C@H](C)CC(=O)O)C(=O)C2(C)C)cc1
attribute.measured: pIC50
measured.result: 7.70
--
compound: Cc1ccccc1NC(=O)Nc1ccc(CN2C(=O)N(C(CC(C)C)C(=O)NC(CC(=O)O)c3ccccc3F)C(=O)C2(C)c2ccccc2)cc1 (stereo not drawn)
attribute.measured: pIC50
measured.result: 7.77
--
compound: CCCCS(=O)(=O)NC(CNC(=O)C(CC(C)C)N1C(=O)N(Cc2ccc(NC(=O)Nc3ccccc3C)cc2)C(C)(c2ccccc2)C1=O)C(=O)O (racemic)
attribute.measured: pIC50
measured.result: 7.64
--
compound: CC(C)C[C@@H](C(=O)N[C@@H](CC(=O)O)c1ccccc1)N1C(=O)N(Cc2ccc(NC(=O)Nc3ccccc3)cc2)C(C)(C)C1=O
attribute.measured: pIC50
measured.result: 8.52
--
compound: Cc1ccccc1NC(=O)Nc1ccc(CN2C(=O)N([C@@H](CC(C)C)C(=O)N[C@@H](CC(=O)O)c3c(F)c(F)c(F)c(F)c3F)C(=O)C2(C)C)cc1
attribute.measured: pIC50
measured.result: 7.60
--
compound: Cc1ccccc1NC(=O)Nc1ccc(CN2CC(=O)N(CC(=O)N[C@@H](CC(=O)O)C(=O)NC3C4CC5CC(C4)CC3C5)C2=O)cc1 (stereo partly drawn)
attribute.measured: pIC50
measured.result: 6.28
--
compound: Cc1ccccc1NC(=O)Nc1ccc(CN2C(=O)N(CC(=O)NCCC(=O)O)C(=O)C2(C)C)cc1
attribute.measured: pIC50
measured.result: 7.52
--
compound: Cc1ccccc1NC(=O)Nc1ccc(CN2C(=O)N([C@@H](CC(C)C)C(=O)NCC(=O)O)C(=O)C2(C)C)cc1
attribute.measured: pIC50
measured.result: 6.22
--
compound: CC(C)C[C@@H](C(=O)N[C@@H](CC(=O)O)C(=O)N[C@H](C(=O)O)c1ccccc1)N1C(=O)N(Cc2ccc(NC(=O)Nc3ccccc3C(F)(F)F)cc2)C(C)(C)C1=O
attribute.measured: pIC50
measured.result: 6.52
--
compound: Cc1ccccc1NC(=O)Nc1ccc(CN2CC(=O)N(CC(=O)N(C)[C@@H](CC(=O)O)C(=O)NC3C4CC5CC(C4)CC3C5)C2=O)cc1 (stereo partly drawn)
attribute.measured: pIC50
measured.result: 6.80
--
compound: Cc1ccccc1NC(=O)Nc1ccc(CN2C(=O)N(C(CC(C)C)C(=O)NC(CC(=O)O)c3c(F)cccc3F)C(=O)C2(C)c2ccccc2)cc1 (stereo not drawn)
attribute.measured: pIC50
measured.result: 7.02
--
compound: Cc1ccccc1NC(=O)Nc1ccc(CN2C(=O)N(CC(=O)N[C@@H](CC(=O)O)c3ccc4c(c3)OCO4)C(=O)C2(C)C)cc1
attribute.measured: pIC50
measured.result: 8.15

----------
- test.system: interaction between VCAM-1 and VLA-4 (Homo sapiens, UniProt P05556+P13612)
- Construct: supplied in their natural form as surface molecules on human U937 cells; The partner hVCAM-1(1-3)-IgG was made in house in transfected COS cells (ATCC CRL1651) and used as culture supernatant
- protocol.details: U937/VCAM-1 cell adhesion test (adhesion of U937 cells to hVCAM-1(1-3)-IgG)
- reported.conditions: concentration leading to 50% inhibition of adhesion of human U937 cells (ATCC CRL 1593) to hVCAM-1(1-3)-IgG
As shown below, each of these molecules has a reported IC50 value.

molecule: Cc1ccccc1NC(=O)Nc1ccc(CN2C(=O)N([C@@H](C)C(=O)N[C@H](C)CC(=O)O)C(=O)C2(C)C)cc1
IC50: 0.082 µM
//
molecule: Cc1ccccc1NC(=O)Nc1ccc(CN2C(=O)N(CC(=O)N[C@@H](CC(=O)O)c3ccccc3)C(=O)C2(C)C)cc1
IC50: 0.01 µM
//
molecule: Cc1ccccc1NC(=O)Nc1ccc(CN2C(=O)N([C@@H](CC(C)C)C(=O)N[C@@H](CC(=O)O)C(=O)N[C@H](C(=O)N3CCC[C@H]3C(=O)O)C(C)C)C(=O)C2(C)C)cc1
IC50: 0.0015 µM
//
molecule: Cc1ccccc1NC(=O)Nc1ccc(CN2C(=O)N(CC(=O)N(C)[C@@H](CC(=O)O)C(=O)O)C(=O)C2(C)C)cc1
IC50: 0.11 µM
//
molecule: Cc1ccccc1NC(=O)Nc1ccc(CN2C(=O)N([C@@H](CC(C)C)C(=O)NC(CC(=O)O)c3ccccc3)C(=O)C2(C)C)cc1 (mixture of isomers)
IC50: 0.025 µM
//
molecule: Cc1ccccc1NC(=O)Nc1ccc(CN2C(=O)N([C@@H](CC(C)C)C(=O)N[C@H](C)CC(=O)O)C(=O)C2(C)C)cc1
IC50: 0.0038 µM

----------
- test.system: interaction between VCAM-1 and VLA-4 (Homo sapiens, UniProt P05556+P13612)
- Construct: supplied in their natural form as surface molecules on human U937 cells; The partner hVCAM-1(1-3)-IgG was made in house in transfected COS cells (ATCC CRL1651) and used as culture supernatant
- protocol.details: U937/VCAM-1 cell adhesion test (adhesion of U937 cells to hVCAM-1(1-3)-IgG)
- reported.conditions: concentration leading to 50% inhibition of adhesion of human U937 cells (ATCC CRL 1593) to hVCAM-1(1-3)-IgG
pIC50: −log10 of the molar value.
pIC50 of 8 or higher: rule met. Under 8: rule not met.

molecule: Cc1ccccc1NC(=O)Nc1ccc(CN2C(=O)N([C@@H](CC(C)C)C(=O)N[C@@H](CC(=O)O)c3ccc4c(c3)OCO4)C(=O)C2(C)C)cc1
test.system: interaction between VCAM-1 and VLA-4 (Homo sapiens, UniProt P05556+P13612)
group: rule met
//
molecule: COC(=O)c1ccccc1NC(=O)Nc1ccc(CN2C(=O)N(CC(=O)N[C@H](C)CC(=O)O)C(=O)C2(C)C)cc1
test.system: interaction between VCAM-1 and VLA-4 (Homo sapiens, UniProt P05556+P13612)
group: rule not met
//
molecule: Cc1ccccc1NC(=O)Nc1ccc(CN2C(=O)N(CC(=O)NC(C)(C)CC(=O)O)C(=O)C2(C)C)cc1
test.system: interaction between VCAM-1 and VLA-4 (Homo sapiens, UniProt P05556+P13612)
group: rule not met
//
molecule: C[C@H](CC(=O)O)NC(=O)[C@H](CC1CC1)N1C(=O)N(Cc2ccc(NC(=O)Nc3ccccc3)cc2)C(C)(C)C1=O
test.system: interaction between VCAM-1 and VLA-4 (Homo sapiens, UniProt P05556+P13612)
group: rule not met
//
molecule: CC(C)C[C@@H](C(=O)N[C@@H](CC(=O)O)C(=O)N[C@H](C(=O)O)c1ccccc1)N1C(=O)N(Cc2ccc(NC(=O)NCc3ccccc3)cc2)C(C)(C)C1=O
test.system: interaction between VCAM-1 and VLA-4 (Homo sapiens, UniProt P05556+P13612)
group: rule not met
//
molecule: Cc1cccc(C)c1NC(=O)Nc1ccc(CN2C(=O)N(CC(=O)N[C@@H](CC(=O)O)c3ccccc3)C(=O)C2(C)C)cc1
test.system: interaction between VCAM-1 and VLA-4 (Homo sapiens, UniProt P05556+P13612)
group: rule not met
//
molecule: Cc1ccccc1NC(=O)Nc1ccc(CN2C(=O)N(C(CC(C)C)C(=O)NC(CC(=O)O)c3ccc(C(C)(C)C)cc3)C(=O)C2(C)c2ccccc2)cc1 (stereo not drawn)
test.system: interaction between VCAM-1 and VLA-4 (Homo sapiens, UniProt P05556+P13612)
group: rule not met
//
molecule: Cc1ccccc1NC(=O)Nc1ccc(CN2C(=O)N(C(CC(C)C)C(=O)NC(CC(=O)O)c3ccc(F)cc3)C(=O)C2(C)c2ccccc2)cc1 (stereo not drawn) [Example 192]
test.system: interaction between VCAM-1 and VLA-4 (Homo sapiens, UniProt P05556+P13612)
group: rule not met
//
molecule: Cc1ccccc1NC(=O)Nc1ccc(CN2C(=O)N([C@@H](CC(C)C)C(=O)N[C@@H](CC(=O)O)c3ccccc3)C(=O)C2(C)C)cc1
test.system: interaction between VCAM-1 and VLA-4 (Homo sapiens, UniProt P05556+P13612)
group: rule met
//
molecule: Cc1ccccc1NC(=O)Nc1ccc(CN2C(=O)N(CC(=O)NC[C@H](NC(=O)OCc3ccccc3)C(=O)O)C(=O)C2(C)C)cc1
test.system: interaction between VCAM-1 and VLA-4 (Homo sapiens, UniProt P05556+P13612)
group: rule not met
//
molecule: COc1ccccc1NC(=O)Nc1ccc(CN2C(=O)N([C@@H](CC(C)C)C(=O)N[C@@H](CC(=O)O)C(=O)N[C@H](C(=O)O)c3ccccc3)C(=O)C2(C)C)cc1
test.system: interaction between VCAM-1 and VLA-4 (Homo sapiens, UniProt P05556+P13612)
group: rule not met

Where do the numbers come from? From patent US6521654B2.
